Tested on: rat A1 adenosine receptor (Rattus norvegicus, UniProt P25099)
Construct: Membranes were prepared from rat cerebral cortex isolated from freshly euthanized rats; from tissue; host or cells: rat cerebral cortex
Sequence (P25099 1-326): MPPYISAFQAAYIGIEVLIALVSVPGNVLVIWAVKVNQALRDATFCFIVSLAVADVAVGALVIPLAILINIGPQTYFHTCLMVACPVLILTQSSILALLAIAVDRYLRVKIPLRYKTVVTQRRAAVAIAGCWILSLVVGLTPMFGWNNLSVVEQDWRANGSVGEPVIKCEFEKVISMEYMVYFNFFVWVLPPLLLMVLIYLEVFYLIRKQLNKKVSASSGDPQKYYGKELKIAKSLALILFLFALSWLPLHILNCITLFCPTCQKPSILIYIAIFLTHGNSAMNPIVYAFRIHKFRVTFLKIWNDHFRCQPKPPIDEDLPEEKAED
Protocol: Radioligand ([3H]DPCPX) competition binding assay on rat A1 adenosine receptor (rat cerebral cortex membranes)
Condition notes: 2.5 h, % of total specific radioligand binding remaining at 1 μM of competing compound
Listed molecules paired with reported % specific radioligand binding remaining at 1 µM
Observed property: % specific radioligand binding remaining at 1 µM (%)

Molecule | Unit string | Assay result
CCCN1C(=O)N2CC[C@@H](C)N=C2c2[nH]c(C34CCC(O)(CC3)CC4)nc21 [Compound 31] | % | 40
CCC[C@@H]1CN2C(=O)N(CCC)c3nc(C45CCC(O)(CC4)CC5)[nH]c3C2=N1 [Compound 11] | % | 3.7
CCCN1C(=O)N2C[C@@H](Cc3ccc(O)cc3)N=C2c2[nH]c(C34CCC(O)(CC3)CC4)nc21 [Compound 28] | % | 36.3
CCCN1C(=O)N2C[C@@H](C)N=C2c2[nH]c(C34CCC(C(=O)O)(CC3)CC4)nc21 [Compound 22] | % | 24
CCCN1C(=O)N2C(=NC[C@H]2C)c2[nH]c(C34CCC(O)(CC3)CC4)nc21 [Compound 14] | % | 7.8
CCCN1C(=O)N2C[C@H](CC)N=C2c2[nH]c(C34CCC(C(=O)O)(CC3)CC4)nc21 [Compound 26] | % | 41.1
CCCN1C(=O)N2CCCCN=C2c2[nH]c(C34CCC(O)(CC3)CC4)nc21 [Compound 27] | % | 16.3
CCCN1C(=O)N2CCCN=C2c2[nH]c(C34CCC(O)(CC3)CC4)nc21 [Compound 20] | % | 52.7
CCCN1C(=O)N2CCCCN=C2c2[nH]c(C34CCC(C(=O)O)(CC3)CC4)nc21 [Compound 30] | % | 71
CCCN1C(=O)N2C[C@@H](C)N=C2c2[nH]c(C34CCC(CCC(=O)O)(CC3)CC4)nc21 [Compound 7] | % | 2.5
CCCN1C(=O)N2C[C@@H](C(C)C)N=C2c2[nH]c(C34CCC(C(=O)O)(CC3)CC4)nc21 [Compound 25] | % | 46.7
CCCN1C(=O)N2CCN=C2c2[nH]c(C34CCC(O)(CC3)CC4)nc21 [Compound 21] | % | 12.2
CCCN1C(=O)N2C(=NC[C@@H]2C)c2[nH]c(C34CCC(O)(CC3)CC4)nc21 [Compound 12] | % | 8.6
CCCN1C(=O)N2C[C@H](C(C)CC)N=C2c2[nH]c(C34CCC(O)(CC3)CC4)nc21 (some centres unmarked) [Compound 15] | % | 7.7
CCCN1C(=O)N2C[C@@H](CC)N=C2c2[nH]c(C34CCC(C(=O)O)(CC3)CC4)nc21 [Compound 10] | % | 6.2
CCCN1C(=O)N2C[C@@H](CC)N=C2c2[nH]c(C34CCC(CC3)CC4)nc21 [Compound 9] | % | 0.1
CCC[C@@H]1CN2C(=O)N(CCC)c3nc(C45CCC(C(=O)O)(CC4)CC5)[nH]c3C2=N1 [Compound 23] | % | 22.8
CCCN1C(=O)N2C[C@@H](C(C)C)N=C2c2[nH]c(C34CCC(CCC(=O)O)(CC3)CC4)nc21 [Compound 5] | % | 1.9
CCCN1C(=O)N2CCCN=C2c2[nH]c(C34CCC(C(=O)O)(CC3)CC4)nc21 [Compound 29] | % | 81.8
CCCN1C(=O)N2CCN=C2c2[nH]c(C34CCC(C(=O)O)(CC3)CC4)nc21 [Compound 6] | % | 2.6
